Test: Metabolic stability in human liver S-9 fractions
Type: in vitro ADME
Settings: % parent remaining after 30 min at 37 C divided by average % ranolazine remaining (57%), >1.2 better, 0.8-1.2 equivalent, <0.8 less stable than ranolazine
Description: Metabolic Stability: As a measure of metabolic stability the compounds of this invention were incubated with human liver S-9 microsomal fractions. After, 30 minutes at 37 C, the amount of parent drug remaining was determined using LC-mass spec. The response factors for each compound was determined by establishing a standard curve and using an internal standard during the analysis of the samples. […]
Exam item: assign Satisfied to entries whose Liver S9 Stability Factor is below 0.6 and Not satisfied to entries at or above 0.6. Note that a value of exactly 0.6 receives Not satisfied.

Exercise: is_below(Liver S9 Stability Factor, 0.6) for Cc1cccc(C)c1NC(=O)CN1CCN(CC(O)COc2cccc3[nH]c(C(N)=O)cc23)CC1 (stereo not shown) ?
Solution: Not satisfied

Exercise: is_below(Liver S9 Stability Factor, 0.6) for Cc1nc2cc(OCC(O)CN3C(C)CN(CC(=O)Nc4c(C)cccc4C)CC3C)ccc2s1 (stereo not shown) ?
Solution: Satisfied

Exercise: is_below(Liver S9 Stability Factor, 0.6) for Cc1cccc(C)c1NC(=O)CN1CCN(CC(O)COc2ccc3ncsc3c2)CC1 (stereo not shown) ?
Solution: Not satisfied

Exercise: is_below(Liver S9 Stability Factor, 0.6) for Cc1cccc(C)c1NC(=O)CN1CCN(CC(O)COc2cnc3ccccc3n2)CC1 (stereo not shown) ?
Solution: Satisfied

Exercise: is_below(Liver S9 Stability Factor, 0.6) for Cc1nc2cc(OCC(O)CN3CCN(CC(=O)Nc4c(C)cccc4C)CC3)ccc2s1 (stereo not shown) ?
Solution: Not satisfied

Continuing:
Exercise: is_below(Liver S9 Stability Factor, 0.6) for Cc1ccc2ccc(OCC(O)CN3CCN(CC(=O)Nc4c(C)cccc4C)CC3)cc2n1 (stereo not shown) ?
Solution: Satisfied

Exercise: is_below(Liver S9 Stability Factor, 0.6) for Cc1cccc(C)c1NC(=O)CN1CCN(CC(O)COc2ccnc3ccccc23)CC1 (stereo not shown) ?
Solution: Not satisfied

Exercise: is_below(Liver S9 Stability Factor, 0.6) for Cc1cccc(C)c1NC(=O)CN1CCN(CC(O)COc2cccc3cnccc23)CC1 (stereo not shown) ?
Solution: Not satisfied

###

Inhibition of mitochondrial fatty acid oxidation, % of Control, 50 μm (%) by entry:
Tested on: mitochondrial fatty acid oxidation using palmitoyl CoA as substrate
Test: Palmitoyl CoA oxidation in isolated rat heart mitochondria
Assay type: biochemical
Details: 50 μm compound; 1-C14 palmitoyl CoA substrate; 15 min at 30° C.; vs DMSO control
Source text: Rat heart mitochondria were isolated by the method of Nedergard and Cannon (Methods in Enzymol. 55, 3, 1979). […]
Lab book: enter the figure in %, no units written.

Exercise: What value of measured Inhibition of mitochondrial fatty acid oxidation, % of Control, 50 μm (%) is listed for Cc1cccc(C)c1NC(=O)CN1CCN(CC(O)COc2ccc3oc(-c4ccc(C(F)(F)F)cc4)nc3c2)CC1 (stereo not shown) ?
Solution: 68

Exercise: What value of measured Inhibition of mitochondrial fatty acid oxidation, % of Control, 50 μm (%) is listed for Cc1cccc(C)c1NC(=O)CN1CCN(CC(O)COc2ccc3oc(-c4ccccc4)nc3c2)CC1 (stereo not shown) ?
Solution: 61

Exercise: What value of measured Inhibition of mitochondrial fatty acid oxidation, % of Control, 50 μm (%) is listed for Cc1cccc(C)c1NC(=O)CN1CCN(CC(O)COc2ccc3oc(-c4cccc(C(F)(F)F)c4)nc3c2)CC1 (stereo not shown) ?
Solution: 77

Let us move to another entry and its Inhibition of mitochondrial fatty acid oxidation, % of Control, 50 μm (%).
Exercise: What value of measured Inhibition of mitochondrial fatty acid oxidation, % of Control, 50 μm (%) is listed for Cc1cccc(C)c1NC(=O)CN1CCN(CC(O)COc2cccc3nc(-c4ccccc4)sc23)CC1 (stereo not shown) ?
Solution: 62
